Value source: patent US12065442B2

tested on: KM12 cells; assay: Cell viability assay (CellTiter-Glo) in KM12 cells; assay type: cell-based; conditions: Homo sapiens, KM12, 72 h
pIC50: −log10 of the molar value.

{"columns": ["Molecule", "pIC50"],
 "data": [
  ["Cn1c(=O)n(C2CCC(=O)NC2=O)c2cccc(CCCCN3CCN(c4cccc(-c5cnc6ccc(N7CCC[C@@H]7c7cccc(F)c7)nn56)n4)CC3)c21 (some centres unmarked)", 8.05],
  ["Cn1c(=O)n(C2CCC(=O)NC2=O)c2cccc(C#CCN3CCN(c4cccc(-c5cnc6ccc(N7CCC[C@@H]7c7cccc(F)c7)nn56)n4)CC3)c21 (some centres unmarked)", 7.80]
]}
